# system tested: Human immunodeficiency virus type 1 reverse transcriptase (Human immunodeficiency virus 1) (UniProt Q72547)
# experiment: Inhibition of HIV-1 reverse transcriptase incubated for 2 hrs in presence of template and viral nucleotides by ELISA relative to control
# Design: concentration or dose not given beside the values
# conditions: concentration not given here
In this section, each of the molecules is paired with its reported inhibition.

[
  {
    "molecule": "Cc1cc(C#N)cc(C)c1Oc1ccnc(NC2CCN(Cc3cn(Cc4ccc(C(N)=O)cc4)nn3)CC2)n1",
    "inhibition [%]": 94.1
  },
  {
    "molecule": "COC(=O)CCCn1cc(CN2CCC(Nc3nccc(Oc4c(C)cc(/C=C/C#N)cc4C)n3)CC2)nn1",
    "inhibition [%]": 90.7
  },
  {
    "molecule": "Cc1ccccc1Cn1cc(CCNc2nccc(Oc3c(C)cc(C#N)cc3C)n2)nn1",
    "inhibition [%]": 55
  },
  {
    "molecule": "Cc1cc(C#N)cc(C)c1Oc1nc(Nc2ccc(C#N)cc2)nc(N)c1Br [ETRAVIRINE]",
    "inhibition [%]": 52.3
  },
  {
    "molecule": "Cc1cc(C#N)cc(C)c1Oc1ccnc(NC2CCN(Cc3cn(Cc4ccc(B(O)O)cc4)nn3)CC2)n1",
    "inhibition [%]": 89.8
  },
  {
    "molecule": "Cc1cc(/C=C/C#N)cc(C)c1Oc1ccnc(NC2CCN(Cc3cn(CC(=O)N4CCOCC4)nn3)CC2)n1",
    "inhibition [%]": 89.4
  },
  {
    "molecule": "Cc1cc(/C=C/C#N)cc(C)c1Oc1ccnc(NC2CCN(Cc3cn(Cc4ccc(B(O)O)cc4)nn3)CC2)n1",
    "inhibition [%]": 92.2
  },
  {
    "molecule": "Cc1cc(C#N)cc(C)c1Oc1ccnc(NCCc2cn(Cc3ccc(Cl)cc3)nn2)n1",
    "inhibition [%]": 51.3
  },
  {
    "molecule": "Cc1cc(/C=C/C#N)cc(C)c1Oc1ccnc(NC2CCN(Cc3cn(CC(=O)NC4CC4)nn3)CC2)n1",
    "inhibition [%]": 92.4
  },
  {
    "molecule": "Cc1cc(C#N)cc(C)c1Oc1ccnc(NC2CCN(Cc3cn(Cc4ccccc4C#N)nn3)CC2)n1",
    "inhibition [%]": 91.3
  },
  {
    "molecule": "COC(=O)CCCn1cc(CN2CCC(Nc3nccc(Oc4c(C)cc(C#N)cc4C)n3)CC2)nn1",
    "inhibition [%]": 90.7
  },
  {
    "molecule": "Cc1cc(C#N)cc(C)c1Oc1ccnc(NC2CCN(Cc3cn(Cc4ccc(S(N)(=O)=O)cc4)nn3)CC2)n1",
    "inhibition [%]": 89.3
  },
  {
    "molecule": "CCOC(=O)Cn1cc(CN2CCC(Nc3nccc(Oc4c(C)cc(/C=C/C#N)cc4C)n3)CC2)nn1",
    "inhibition [%]": 90.9
  },
  {
    "molecule": "Cc1cc(/C=C/C#N)cc(C)c1Oc1ccnc(NCCc2cn(Cc3ccc(S(N)(=O)=O)cc3)nn2)n1",
    "inhibition [%]": 69.2
  },
  {
    "molecule": "Cc1cc(C#N)cc(C)c1Oc1ccnc(NC2CCN(Cc3cn(CC(=O)NC4CC4)nn3)CC2)n1",
    "inhibition [%]": 93.4
  },
  {
    "molecule": "COC(=O)Cn1cc(CN2CCC(Nc3nccc(Oc4c(C)cc(/C=C/C#N)cc4C)n3)CC2)nn1",
    "inhibition [%]": 91.7
  },
  {
    "molecule": "COC(=O)Cn1cc(CCNc2nccc(Oc3c(C)cc(/C=C/C#N)cc3C)n2)nn1",
    "inhibition [%]": 65.3
  },
  {
    "molecule": "Cc1cc(C#N)cc(C)c1Oc1ccnc(NC2CCN(Cc3cn(CC(=O)Nc4ccc(S(C)(=O)=O)cc4)nn3)CC2)n1",
    "inhibition [%]": 93.8
  }
]

====

In this section, each of the compounds is paired with its reported solubility thermodynamic at 24 h.
# experiment: Aqueous solubility of compound at pH 7 incubated for 24 hrs under shaking condition by HPLC method
# Type: physicochemical
# conditions: buffer

[
  {
    "smiles entry": "Cc1cc(/C=C/C#N)cc(C)c1Oc1nc(NC2CCN(Cc3cn(CC(N)=O)nn3)CC2)nc2sccc12",
    "result unit": "µg/mL",
    "solubility thermodynamic at 24 h": 22.5
  },
  {
    "smiles entry": "CNC(=O)Cn1cc(CN2CCC(Nc3nc(Oc4c(C)cc(/C=C/C#N)cc4C)c4ccsc4n3)CC2)nn1",
    "result unit": "µg/mL",
    "solubility thermodynamic at 24 h": 23.6
  },
  {
    "smiles entry": "Cc1cc(/C=C/C#N)cc(C)c1Oc1ccnc(NC2CCN(Cc3cn(CC(=O)NC4CC4)nn3)CC2)n1",
    "result unit": "µg/mL",
    "solubility thermodynamic at 24 h": 198
  },
  {
    "smiles entry": "CCNC(=O)Cn1cc(CN2CCC(Nc3nc(Oc4c(C)cc(/C=C/C#N)cc4C)c4ccsc4n3)CC2)nn1",
    "result unit": "µg/mL",
    "solubility thermodynamic at 24 h": 25.1
  },
  {
    "smiles entry": "Cc1cc(/C=C/C#N)cc(C)c1Oc1nc(NC2CCN(Cc3cn(CC(=O)NC4CCOCC4)nn3)CC2)nc2sccc12",
    "result unit": "µg/mL",
    "solubility thermodynamic at 24 h": 22.5
  }
]

====

# experiment: Cytotoxicity against human MT4 cells assessed as reduction in cell viability incubated for 5 days by MTT method
# Type: toxicity, cell-based
# conditions: time 5 day
In this section, each of the compounds is paired with its reported CC50 at 120 h.

[
  {
    "smiles entry": "CNC(=O)Cn1cc(CN2CCC(Nc3nc(Oc4c(C)cc(/C=C/C#N)cc4C)c4ccsc4n3)CC2)nn1",
    "qualifier symbol": "=",
    "CC50 at 120 h / µM": 18.7
  },
  {
    "smiles entry": "Cc1ccnc2c1NC(=O)c1cccnc1N2C1CC1",
    "qualifier symbol": ">",
    "CC50 at 120 h / µM": 15
  },
  {
    "smiles entry": "Cc1cc(/C=C/C#N)cc(C)c1Oc1nc(NC2CCN(Cc3cn(CC(=O)NC4CCOCC4)nn3)CC2)nc2ccsc12",
    "qualifier symbol": "=",
    "CC50 at 120 h / µM": 15.6
  },
  {
    "smiles entry": "Cc1cc(/C=C/C#N)cc(C)c1Oc1nc(NC2CCN(Cc3cn(CC(=O)NC4CC4)nn3)CC2)nc2sccc12",
    "qualifier symbol": "=",
    "CC50 at 120 h / µM": 16.9
  },
  {
    "smiles entry": "O=C1Nc2ccc(Cl)cc2[C@@](C#CC2CC2)(C(F)(F)F)O1",
    "qualifier symbol": ">",
    "CC50 at 120 h / µM": 6.35
  }
]

====

# experiment: Selectivity index, ratio of CC50 for human MT4 cells to EC50 for antiviral activity against HIV1 IIIB infected in MT4 cells
# Assay type: toxicity, cell-based
# conditions: read-out: Ratio CC50/EC50
In this section, each of the compounds is paired with its reported selectivity ratio.
assay endpoint: selectivity ratio

[
  {
    "smiles entry": "Cc1cc(/C=C/C#N)cc(C)c1Oc1nc(NC2CCN(Cc3cn(CC(=O)NC4CC4)nn3)CC2)nc2ccsc12",
    "number": 2940
  },
  {
    "smiles entry": "Cc1cc(/C=C/C#N)cc(C)c1Oc1ccnc(NC2CCN(Cc3cn(CC(=O)NC4CC4)nn3)CC2)n1",
    "number": 14000
  },
  {
    "smiles entry": "Cc1cc(/C=C/C#N)cc(C)c1Oc1nc(NC2CCN(Cc3cn(CC(=O)NC4CC4)nn3)CC2)nc2ccccc12",
    "number": 4150
  },
  {
    "smiles entry": "Cc1cc(/C=C/C#N)cc(C)c1Oc1nc(NC2CCN(Cc3cn(CC(N)=O)nn3)CC2)nc2c1COC2",
    "number": 9570
  }
]

====

# system tested: Human immunodeficiency virus type 1 reverse transcriptase (Human immunodeficiency virus 1)
# experiment: Inhibition of HIV-1 reverse transcriptase assessed as reduction in biotin-dUTP incorporation incubated for 2 hrs in presence of template and viral nucleotides by ELISA
pIC50: −log10 of the molar value.
If the reported pIC50 equals or exceeds 7, assign true. If not, assign false.

[
  {
    "smiles entry": "Cc1cc(/C=C/C#N)cc(C)c1Oc1nc(NC2CCN(Cc3cn(CC(=O)NC4CC4)nn3)CC2)nc2sccc12",
    "label class": "false"
  },
  {
    "smiles entry": "CCOC(=O)Cn1cc(CN2CCC(Nc3nccc(Oc4c(C)cc(/C=C/C#N)cc4C)n3)CC2)nn1",
    "label class": "true"
  },
  {
    "smiles entry": "Cc1cc(/C=C/C#N)cc(C)c1Oc1ccnc(NC2CCN(Cc3cn(CC(=O)NC4CC4)nn3)CC2)n1",
    "label class": "true"
  },
  {
    "smiles entry": "Cc1cc(/C=C/C#N)cc(C)c1Oc1nc(NC2CCN(Cc3cn(CC(=O)NC4CCOCC4)nn3)CC2)nc2sccc12",
    "label class": "false"
  },
  {
    "smiles entry": "COC(=O)Cn1cc(CN2CCC(Nc3nccc(Oc4c(C)cc(/C=C/C#N)cc4C)n3)CC2)nn1",
    "label class": "true"
  },
  {
    "smiles entry": "Cc1cc(C#N)cc(C)c1Oc1ccnc(NC2CCN(Cc3cn(Cc4ccc(C(N)=O)cc4)nn3)CC2)n1",
    "label class": "true"
  },
  {
    "smiles entry": "Cc1cc(/C=C/C#N)cc(C)c1Oc1ccnc(NC2CCN(Cc3cn(CC(=O)N4CCOCC4)nn3)CC2)n1",
    "label class": "true"
  },
  {
    "smiles entry": "COC(=O)CCCn1cc(CN2CCC(Nc3nccc(Oc4c(C)cc(C#N)cc4C)n3)CC2)nn1",
    "label class": "true"
  },
  {
    "smiles entry": "CCNC(=O)Cn1cc(CN2CCC(Nc3nc(Oc4c(C)cc(/C=C/C#N)cc4C)c4ccsc4n3)CC2)nn1",
    "label class": "false"
  }
]

// provenance: ChEMBL document CHEMBL5614409
